Parameter IC50: see the listing below.
Molecular target: T1, hMcl-1 (172–323) (human), Q07820
T1 chain: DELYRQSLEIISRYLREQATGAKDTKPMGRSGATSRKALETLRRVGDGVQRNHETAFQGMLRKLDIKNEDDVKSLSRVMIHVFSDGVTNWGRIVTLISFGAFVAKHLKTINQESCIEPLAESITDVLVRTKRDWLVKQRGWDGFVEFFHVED
Assay: DELFIA displacement assay
Non-standard residues stand in square brackets, D forms with d. code λ = not defined here
The figure you give is taken to be in nM; do not add the unit.

> print(dat)
                                     binder  unit.abbrev  experimental.value
1  Ac-[code λ]ATQLRRFGDKLNFRQKLLN-NH2 (reading uncertain) [λ_hNOXA (Ac-λ…-NH2)]           nM                 233

Prompt: Param item = Ac-[code h]ATQLRRFGDKLNFRQKLLN-NH2 [homo_hNOXA (Ac-h…-NH2)] ; retrieve measured IC50.
Completion: 266
